The following compounds are shown together with reported TGI values.
Test system: DU-145 prostate
ASSAY PROCEDURE: NCI tumour cell line growth inhibition, 48 h
Numbered stars: 1 amine (or outer) side, 2 acyl side, 3 side chain; on linkers, the order of the positions; unused ones are H or OH. Bridge positions count the residues as written; N and C are the ends. Square brackets hold non-standard residues; d marks the D form. Peptide text beside a SMILES is read from it. I, II: the chains in the order shown. Actinocin(1to9) = Cc1c2oc3c(C)ccc(C(=O)[*:2])c3nc-2c(C(=O)[*:1])c(N)c1=O; NMeV = CN[CH](C(=O)O)C(C)C; Sar = CNCC(=O)O
Please reply with the bare figure in µM and do not write the unit itself.

INSERT INTO measurements (compound, readout_type, quantitative_result) VALUES
  ('COc1ccc(-c2c(C#N)cnc(N)c2-c2nc3cc(C)c(C)cc3[nH]2)cc1', 'TGI', 23.8),
  ('COC(=O)C1=C(O)C(C(=O)OC)[C@@]2(O)[C@@H](C(=O)OC)C(c3ccccc3Cl)C[C@@H]1[C@@H]2C(=O)OC (some centres not stated)', 'TGI', 32.9),
  ('O=C1C=C(OCC=C(Cl)Cl)C(=O)c2ccccc21', 'TGI', 8.94),
  ('Nc1cc(N)c2nc(-c3ccccc3)c(Oc3ccc(Cl)c(Cl)c3)nc2c1', 'TGI', 27.1),
  ('Cc1cc2nc3c(C#N)c4c(c(Nc5ccc(Cl)cc5)n3c2cc1C)CCC4', 'TGI', 75.1);

query: Consider the compound CCC(C)C1NC(=O)C(NC(=O)c2c3nc4c(C(=O)NC5C(=O)NC(C(C)C)C(=O)N6CCCC6C(=O)N(C)CC(=O)N(C)C(C(C)C)C(=O)OC5C)ccc(C)c4oc-3c(C)c(=O)c2N)C(C)OC(=O)C(C(C)C)N(C)C(=O)CN(C)C(=O)C2CCCN2C1=O (configuration not stated) (I: TIP[Sar][NMeV] / II: TVP[Sar][NMeV]; ester I:1-I:C, II:1-II:C; linker I:N-II:N via Actinocin(1to9); configuration not given here) and give its measured TGI.
result: 0.71

query: Any idea what TGI was measured for CC(CNc1nc(Nc2ccc(Cl)c(Cl)c2)nc(C(Cl)(Cl)Cl)n1)N(C)C (configuration not stated) ?
result: 4.09

query: Requested field: TGI. Item: O=c1cc(-c2cccc(Br)c2)[nH]c2cc3c(cc12)OCO3
result: 18.1

----------
The entries below are paired with their reported TGI.
System: SN12C renal
ASSAY PROCEDURE: NCI tumour cell line growth inhibition, 48 h

INSERT INTO assay_data (molecule, readout_type, result) VALUES
  ('CCCNC(=O)Nc1ccc2c(c1)Cc1cc(N(CCCl)CCCl)ccc1-2', 'TGI', '> 100 µM');

query: Which TGI value is on record for CC(=O)Oc1cc2c(n(C)c1=O)CCC2 ?
result: > 100 µM

query: May I ask what TGI has been recorded for COc1ccc2c(c1)NC(=O)CN2c1nc(C)nc2ccccc12 ?
result: > 100 µM

----------
Test system: K-562 leukemia
ASSAY PROCEDURE: NCI tumour cell line growth inhibition, 48 h
Here the recorded TGI is given for each entry.
Hi! Could you send only the number? It should be in µM, unit omitted.

Example cases with answers are listed next.
INSERT INTO results (compound, units_symbol, quantitative_result) VALUES
  ('COc1ccc2c(c1)O/C(=C\c1ccc([N+](=O)[O-])s1)C2=O', 'µM', 1.31),
  ('O=c1ccc2nc3ccc(O)cc3oc-2c1', 'µM', 34.7),
  ('N#CC1C(=O)NC(=O)C(C#N)C1c1ccc(Cl)c(Cl)c1 (stereo not given)', 'µM', 85.8);

query: Form field: TGI recorded for Cc1ccc(C)c(C(=N)c2ccccc2Cc2ccccc2)c1 with K-562 leukemia (enter value)
result: 58.7

query: Form: Entry = O=C(N/N=C/c1cccc(O)c1)c1ccc(C(F)(F)F)nc1Nc1cccc(C(F)(F)F)c1 | System = K-562 leukemia | TGI = ____
result: 2.69

query: State its TGI on K-562 leukemia: C/C=C1/C(=O)O[C@]23C=C[C@@H]4C(C(=O)OC)=CO[C@H](O[C@@H]12)[C@@H]43
result: 7.93

query: // fetch K-562 leukemia TGI for O=C(Nc1ccc(N2CCNCC2)cn1)c1[nH]ncc1Nc1ncnc2sc3c(c12)CCC3
result: 0.498

query: Field: TGI (K-562 leukemia). Entry: CN1CCN(Cc2ccc(NC(=O)c3[nH]ncc3Nc3cc(OC4CCCC4)ncn3)cc2)CC1
result: 13.3

query: Write down the reported TGI of COc1cc2c(cc1O)N=C[C@@H]1CCC(O)N1C2=O (mixture of isomers) , test system: K-562 leukemia.
result: 24.2
